Values from patent US11179376B2

A collection of molecules and their measured Cmax
- assay-procedure: Pharmacokinetics test in beagle dogs (capsule by gavage, plasma LC/MS/MS)
- Format: in vivo
- condition-context: capsule by gavage, dose 2.5 mg/kg, plasma
Counter-ions that a name gives are not always drawn.
measured-attribute: Cmax (ng/mL)

[[record]]
molecule = "COc1ncc(-c2ccn3ncc(C#N)c3c2)cc1NS(=O)(=O)c1ccc(F)cc1F [crystalline form B of mono-sodium salt]"
measured_attribute = "Cmax"
value_reported = 4530

[[record]]
molecule = "COc1ncc(-c2ccn3ncc(C#N)c3c2)cc1NS(=O)(=O)c1ccc(F)cc1F [amorphous form of mono-sodium salt]"
measured_attribute = "Cmax"
value_reported = 2180

[[record]]
molecule = "COc1ncc(-c2ccn3ncc(C#N)c3c2)cc1NS(=O)(=O)c1ccc(F)cc1F [crystalline form C of mono-sodium salt]"
measured_attribute = "Cmax"
value_reported = 1410

[[record]]
molecule = "COc1ncc(-c2ccn3ncc(C#N)c3c2)cc1NS(=O)(=O)c1ccc(F)cc1F [crystalline form A of mono-lithium salt]"
measured_attribute = "Cmax"
value_reported = 1640

[[record]]
molecule = "COc1ncc(-c2ccn3ncc(C#N)c3c2)cc1NS(=O)(=O)c1ccc(F)cc1F [crystalline form A of mono-choline salt]"
measured_attribute = "Cmax"
value_reported = 3220

[[record]]
molecule = "COc1ncc(-c2ccn3ncc(C#N)c3c2)cc1NS(=O)(=O)c1ccc(F)cc1F"
measured_attribute = "Cmax"
value_reported = 3050

[[record]]
molecule = "COc1ncc(-c2ccn3ncc(C#N)c3c2)cc1NS(=O)(=O)c1ccc(F)cc1F [crystalline form A of mono-sodium salt]"
measured_attribute = "Cmax"
value_reported = 2820

